Organism: Mus musculus
Experiment: Minimal inhibitory concentration required to cause a microscopic detectable alteration of C3H/3T3 embryo murine fibroblast cell morphology
Format: functional
Reported MIC by item:

Examples from the recorded data:
| COMPOUND | MIC |
| --- | --- |
| NCCCCCCCCCCNC(=O)[C@@H]1NC(=O)C2NC(=O)C(NC(=O)C3NC(=O)C4NC(=O)C(Cc5ccc(c(Cl)c5)Oc5cc3cc(c5O)Oc3ccc(cc3Cl)C2O)NC(=O)C(N)c2ccc(O)c(c2)Oc2cc(O)cc4c2)c2ccc(O)c(c2)-c2c(O)cc(O)cc21 (stereo partly drawn) | 20 µM |
| CN[C@H](CC(C)C)C(=O)N[C@H]1C(=O)N[C@@H](CC(N)=O)C(=O)N[C@H]2C(=O)N[C@H]3C(=O)N[C@H](C(=O)N[C@H](C(=O)O)c4cc(O)cc(O)c4-c4cc3ccc4O)[C@H](O[C@H]3C[C@](C)(N)[C@@H](O)[C@H](C)O3)c3ccc(cc3)Oc3cc2cc(c3O[C@@H]2O[C@H](CO)[C@@H](O)[C@H](O)[C@H]2O[C@H]2C[C@](C)(N)[C@@H](O)[C@H](C)O2)Oc2ccc(cc2Cl)[C@H]1O | > 100 µM |

Data request: I'd like to know its MIC. The compound in question is CNC(=O)[C@@H]1NC(=O)C2NC(=O)C(NC(=O)C3NC(=O)C4NC(=O)C(Cc5ccc(c(Cl)c5)Oc5cc3cc(c5O)Oc3ccc(cc3Cl)C2O)NC(=O)C(NC(=O)OC(C)(C)C)c2ccc(O)c(c2)Oc2cc(O)cc4c2)c2ccc(O)c(c2)-c2c(O)cc(O)cc21 (stereo partly drawn)
Data returned: > 100 µM
